- measurement.target: RAC-alpha serine/threonine-protein kinase (Homo sapiens)
- Sequence (P31749 whole entry): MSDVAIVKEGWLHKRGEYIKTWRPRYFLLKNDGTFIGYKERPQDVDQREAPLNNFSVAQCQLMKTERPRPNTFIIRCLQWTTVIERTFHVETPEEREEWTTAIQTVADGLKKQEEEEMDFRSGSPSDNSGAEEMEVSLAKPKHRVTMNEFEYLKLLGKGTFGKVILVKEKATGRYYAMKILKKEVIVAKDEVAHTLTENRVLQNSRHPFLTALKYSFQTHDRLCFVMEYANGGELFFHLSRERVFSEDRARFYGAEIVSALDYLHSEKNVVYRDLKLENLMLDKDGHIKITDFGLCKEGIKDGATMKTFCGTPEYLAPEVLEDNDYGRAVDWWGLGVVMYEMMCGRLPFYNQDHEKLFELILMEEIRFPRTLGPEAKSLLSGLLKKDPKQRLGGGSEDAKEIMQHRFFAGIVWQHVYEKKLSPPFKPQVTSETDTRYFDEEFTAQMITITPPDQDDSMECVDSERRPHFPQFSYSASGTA
- procedure.text: Z-LYTE Kinase Assy
- condition.info: pH 7.5; 25 °C
outcome.measure: IC50 (µM)

A: C=c1c(C#N)c2[nH]c(N)c(C#N)c(C)c-2c1=Cc1ccc(-c2cccc(C(=O)O)c2)o1
B: C=c1c(C#N)c2[nH]c(N)c(C#N)c(C)c-2c1=Cc1ccc(-c2ccc(C(=O)O)c(Cl)c2)o1
Qu. Form: Entry with minimum IC50 (choose one): A / B Refer to your chosen entry by its label in the reply.
Ans. B

Data provenance: BindingDB's records for doi:10.1021/jm048962u
